Biological target: glucose-6-phosphatase system (Rattus norvegicus)
Construct: To prepare the microsomal fraction containing the glucose-6-phosphatase, fresh liver organs from male Wistar rats were used; from tissue; host or cells: liver of male Wistar rats, microsomal fraction
Sequence (F7EWB7 1-429): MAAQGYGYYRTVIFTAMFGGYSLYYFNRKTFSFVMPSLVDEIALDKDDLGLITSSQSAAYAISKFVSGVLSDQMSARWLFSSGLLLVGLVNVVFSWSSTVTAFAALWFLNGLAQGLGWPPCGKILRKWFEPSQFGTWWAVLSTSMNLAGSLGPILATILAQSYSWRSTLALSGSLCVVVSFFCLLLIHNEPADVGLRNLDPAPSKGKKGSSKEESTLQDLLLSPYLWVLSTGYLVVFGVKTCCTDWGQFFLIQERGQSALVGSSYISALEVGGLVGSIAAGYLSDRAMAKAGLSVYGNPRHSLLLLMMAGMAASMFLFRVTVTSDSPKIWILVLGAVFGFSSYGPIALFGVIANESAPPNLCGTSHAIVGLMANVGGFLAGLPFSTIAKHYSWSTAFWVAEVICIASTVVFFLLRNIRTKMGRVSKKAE
Test: enzyme assay of glucose-6-phosphatase activity in liver microsomes (phosphate liberated from glucose-6-phosphate)
Format: biochemical, male Wistar rats
Conditions: TABLE; rat liver microsomes, glucose-6-phosphate 1 mmol/l, pH 7.0, 20 min at room temperature
Value type: log10 of IC50 (log10 of the value in µM)

Compound: O=C(O[C@@H]1C[C@](OCCCc2ccc(Cl)cc2)(C(=O)O)C[C@@H](O)[C@H]1O)c1snnc1-c1ccccc1 [Example 116]
log10 of IC50: 0.65
--
Compound: O=C(CCC1CCCCC1)O[C@@H]1C[C@](OCC2CC2c2ccc(Cl)cc2)(C(=O)O)C[C@@H](O)[C@H]1O (stereo partly drawn) [Example 113]
log10 of IC50: 0.57
--
Compound: CC(C)CCC(=O)O[C@@H]1C[C@](OCCCc2ccc(Cl)cc2)(C(=O)O)C[C@@H](O)[C@H]1O [Example 117]
log10 of IC50: 1.61
--
Compound: C=Cc1ccc(C(=O)O[C@@H]2C[C@](OCCCc3ccc(Cl)cc3)(C(=O)O)C[C@@H](O)[C@H]2O)cc1 [Example 118]
log10 of IC50: 0.11
--
Compound: O=C(CCCCC1CCCCC1)O[C@@H]1C[C@](OCCCc2ccc(Cl)cc2)(C(=O)O)C[C@@H](O)[C@H]1O [Example 114]
log10 of IC50: 0.70
--
Compound: O=C(CCC1CCCCC1)O[C@@H]1C[C@](OCCCc2ccc(Cl)cc2)(C(=O)O)C[C@@H](O)[C@H]1O [Example 120]
log10 of IC50: -0.16
--
Compound: O=C(COc1ccccc1)O[C@@H]1C[C@](OCCCc2ccc(Cl)cc2)(C(=O)O)C[C@@H](O)[C@H]1O [Example 119]
log10 of IC50: 1.08
--
Compound: O=C(CC(C1CCCCC1)n1ccnc1)O[C@@H]1C[C@](OCCCc2ccc(Cl)cc2)(C(=O)O)C[C@@H](O)[C@H]1O (stereo partly drawn) [Example 69]
log10 of IC50: 2.23
--
Compound: O=C(O[C@@H]1C[C@](OCCCc2ccc(Cl)cc2)(C(=O)O)C[C@@H](O)[C@H]1O)C1CCCCC1 [Example 115]
log10 of IC50: 0.95
